Attribution: patent US20250206761A1

target: KRAS G12C-BRAF complex (Homo sapiens (Human), UniProt P01116+P62937, G12C); assay: KRAS-BRAF with CYPA (500 nM) interaction assay (TR-FRET), G12C; format: biochemical
Sequence (P01116-2 other isoform, or with tags, fused parts or gaps G12C): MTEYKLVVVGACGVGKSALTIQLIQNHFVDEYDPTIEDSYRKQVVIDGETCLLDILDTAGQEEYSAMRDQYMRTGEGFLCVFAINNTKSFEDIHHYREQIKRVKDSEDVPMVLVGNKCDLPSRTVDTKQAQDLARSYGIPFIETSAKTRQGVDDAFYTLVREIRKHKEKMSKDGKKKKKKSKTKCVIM
Sequence (P62937 whole entry): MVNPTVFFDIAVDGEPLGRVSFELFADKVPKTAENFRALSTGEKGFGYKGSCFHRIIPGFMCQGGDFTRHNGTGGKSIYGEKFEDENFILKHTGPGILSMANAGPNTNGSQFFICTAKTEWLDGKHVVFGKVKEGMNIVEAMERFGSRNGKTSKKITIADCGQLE
pIC50: −log10 of the molar value.
The following molecules are shown together with reported pIC50 values.

molecule	pIC50
CCn1c(-c2cc(N3CCN(CC(F)(F)F)CC3)cnc2[C@H](C)OC)c2c3cc(c(F)cc31)-c1csc(n1)C[C@H](NC(=O)[C@H](C(C)C)N1CCC3(CCN(C(=O)[C@H](F)Cl)CC3)C1=O)C(=O)N1CCC[C@H](N1)C(=O)OCC(C)(C)C2 (atropisomer, axis not shown; (M))	6.98
CCn1c(-c2cc(N3CCN(C)CC3)cnc2[C@H](C)OC)c2c3cc(c(F)cc31)-c1csc(n1)C[C@H](NC(=O)[C@H](C(C)C)N(C)C(=O)C1(F)CCN(C(=O)[C@H](F)Cl)CC1)C(=O)N1CCC[C@H](N1)C(=O)OCC(C)(C)C2 (atropisomer, axis not shown; (M))	7.33
